System: Escherichia coli TOP10;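 note: peptides expressed intracellularly from a pBAD plasmid library in pooled LB shake-flask culture, induced with 0.3% L-arabinose, DNA abundance read by NGS, three biological replicates, DESeq2 with apeglm shrinkage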
Experiment notes: shrunken log2 fold change of peptide-encoding DNA abundance (4.5 h post-induction vs induction); higher = less antimicrobial activity (less host growth inhibition)
Condition description: time post-induction: 4.5 h; library: site-saturation at positions 5, 18, 19, 20
Classification field: rule met = shrunken log2 fold change at or over 0.03; rule not met = shrunken log2 fold change under 0.03.

Would you please look over these solved cases?
Construct sequence: RRIRDRPPRLPRPRPRPETHPRP
Class name: rule met

Construct sequence: RRIRYRPPRLPRPRPRPGVEPRP
Class name: rule met

Construct sequence: RRIRMRPPRLPRPRPRPQTDPRP
Class name: rule met

Construct sequence: RRIRRRPPRLPRPRPRPAELPRP
Class name: rule not met

Construct sequence: RRIRVRPPRLPRPRPRPRRQPRP
Class name: rule met

# next sequence below
Task: # bool: shrunken log2 fold change of "RRIRERPPRLPRPRPRPVQFPRP" >= 0.03
Result: rule not met

Data provenance is the supplement of paper PMC9112550.
